Molecular target: Tyrosine-protein phosphatase non-receptor type 1 (Homo sapiens)
Sequence (P18031 whole entry): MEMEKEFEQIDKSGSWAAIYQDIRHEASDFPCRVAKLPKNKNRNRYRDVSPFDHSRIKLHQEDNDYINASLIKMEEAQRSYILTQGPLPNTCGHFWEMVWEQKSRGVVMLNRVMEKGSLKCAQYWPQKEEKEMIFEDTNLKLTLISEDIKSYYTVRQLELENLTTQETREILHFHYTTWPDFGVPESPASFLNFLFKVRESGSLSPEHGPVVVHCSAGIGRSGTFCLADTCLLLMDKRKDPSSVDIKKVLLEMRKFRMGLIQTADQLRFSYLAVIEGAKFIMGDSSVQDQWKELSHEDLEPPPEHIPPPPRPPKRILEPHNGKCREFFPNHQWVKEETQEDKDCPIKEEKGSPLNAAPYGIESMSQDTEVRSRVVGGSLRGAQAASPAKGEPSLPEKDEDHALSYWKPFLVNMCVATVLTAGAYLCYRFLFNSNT
Entries and their log10 of IC50
The common logarithm of IC50 in nM is what is listed.

Sample answers from the record:
{"columns": ["COMPOUND", "log10 of IC50"],
 "data": [
  ["NS(=O)(=O)C(F)(F)c1cc2nc(CN(Cc3ccc(-c4csnn4)cc3)S(=O)(=O)c3ccc(OCC(=O)O)cc3)ccc2cc1F", 1.58],
  ["O=C(O)COc1ccc(S(=O)(=O)N(Cc2ccc(-c3csnn3)cc2)Cc2ccc(C(F)(F)P(=O)(O)O)c(F)c2)cc1", 1.54]
]}

Exam item: Quick check: log10 of IC50 of O=C(O)COc1ccc(S(=O)(=O)N(Cc2ccc(-c3csnn3)cc2)Cc2ccc3cc(F)c(C(F)(F)P(=O)(O)O)cc3c2)cc1 ?
Marked response: 0.95

Exam item: // repeat for NS(=O)(=O)C(F)(F)c1cc2cc(CN(Cc3ccc(-c4csnn4)cc3)S(=O)(=O)c3ccc(OCC(=O)O)cc3)ccc2cc1Br and report
Marked response: 1.59

Exam item: // repeat for Cc1cc(CN(Cc2ccc(-c3csnn3)cc2)S(=O)(=O)c2ccc(OCC(=O)O)cc2)ccc1C1CC(=O)NS1(=O)=O (stereo unspecified) and report
Marked response: 2.67

Exam item: // repeat for O=C(O)COc1ccc(S(=O)(=O)N(Cc2ccc(-c3csnn3)cc2)Cc2ccc(C3CC(=O)NS3(=O)=O)c(F)c2)cc1 (stereo unspecified) and report
Marked response: 2.66
